- tested_on: T1, ST2 on the effector cells (KU812, KU812/NF-κB-1#, HUVEC, HMC-1) (human, UniProt Q01638 19-556)
- T1 sequence (looked up): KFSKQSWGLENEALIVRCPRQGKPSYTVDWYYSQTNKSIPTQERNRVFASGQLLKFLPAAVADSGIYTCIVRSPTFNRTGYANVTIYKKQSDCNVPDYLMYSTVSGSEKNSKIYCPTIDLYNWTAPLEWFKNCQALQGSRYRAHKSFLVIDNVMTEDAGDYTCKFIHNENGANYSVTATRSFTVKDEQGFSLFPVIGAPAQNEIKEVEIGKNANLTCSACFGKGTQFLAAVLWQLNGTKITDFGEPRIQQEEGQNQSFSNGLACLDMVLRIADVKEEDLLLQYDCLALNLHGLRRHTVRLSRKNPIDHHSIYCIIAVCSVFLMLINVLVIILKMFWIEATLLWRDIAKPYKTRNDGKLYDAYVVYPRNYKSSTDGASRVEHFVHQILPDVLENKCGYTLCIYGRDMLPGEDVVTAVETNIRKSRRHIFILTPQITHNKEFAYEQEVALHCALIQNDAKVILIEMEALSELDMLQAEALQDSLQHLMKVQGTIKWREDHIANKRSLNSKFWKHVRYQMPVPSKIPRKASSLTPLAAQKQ
- test_summary: cell-based or functional assay
test_readout: Maximum inhibition rate, HMC-1 IL8 production by IL33 (%)
Write it as a number; the unit % goes unstated.

5888-116-H0L1 (antibody, human IgG4 S228P, kappa, V domains shown, Humanized antibody) VH: QVQLVQSGAEVKKPGASVKVSCKASGYTFTDSEMYWVRQAPGQGLEWMGAIDPETGDTAFNQKFKGRVTMTRDTSTSTVYMELSSLRSEDTAVYYCARAFDNDNDDGFAYWGQGTMVTVSS VL: DIQMTQSPSSLSASVGDRVTITCSASSSVNYMHWYQQKPGKAPKRLIYDTSKLASGVPSRFSGSGSGTDYTFTISSLQPEDAATYYCQQWSSNPLTFGQGTKLEIKR    90.6
5888-153-H3L1 (antibody, human IgG4 S228P, kappa, V domains shown, Humanized antibody) VH: QVQLVQSGAEVKKPGASVKVSCKASGYTFTDYELHWVRQAPGQGLEWMGTIDPETGDTVYNQKFKARVTMTADKSTSTAYMELSSLRSEDTAVYYCTRAFYNDYDDAFAYWGQGTLVTVSS VL: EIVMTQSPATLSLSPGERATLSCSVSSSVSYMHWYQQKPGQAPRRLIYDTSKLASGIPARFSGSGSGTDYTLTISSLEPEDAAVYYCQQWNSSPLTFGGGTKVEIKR    86.8

Data point: 5888-379-H2L1 (antibody, human IgG4 S228P, kappa, V domains shown, Humanized antibody) VH: QVQLVQSGAEVKKPGASVKVSCKASGYTFINYGMNWVRQAPGQRLEWMGWINTYIGEPTYGDNFKGRVTITRDTSASTAYMELSSLRSEDTAVYYCAREGDAFAYWGQGTLVTVSS VL: DIQMTQSPSSLSASVGDRVTITCKSSQSLLYSGNQNNYLAWYQQKPGKVPKLLIYGASTRESGVPSRFSGSGSGTDFTLTISSLQPEDLATYYCQNDHSYPYTFGGGTKVEIKR ; Maximum inhibition rate, HMC-1 IL8 production by IL33 = 90.2
